Sourced from ChEMBL document CHEMBL4414571

Tested on: Candida albicans
measurement.notes: Antifungal activity against Candida albicans ATCC 10231 by NCCLS-protocol based microplate reader analysis
Assay type: functional
measured.property: MIC (µM)

P: CO[C@@H]1[C@@H](C)O[C@@H](OC[C@@]23C[C@@H]4[C@H](C)CC[C@H]4[C@@]4(C=O)C[C@@H]2C=C(C(C)C)[C@@]34C(=O)O)[C@@H](O)[C@@]12OC(=O)[C@H](CCCC(=O)O)O2
Q: CC(C)C1=C[C@H]2C[C@]3(C(=O)O)[C@@H]4CC[C@@H](C)[C@H]4C[C@@]2(CO)[C@]13C(=O)O
R: CO[C@@H]1[C@@H](C)O[C@@H](OC[C@@]23C[C@@H]4[C@H](C)CC[C@H]4[C@@]4(C=O)C[C@@H]2C=C(C(C)C)[C@@]34C(=O)O)[C@@H](O)[C@@]12OC(=O)[C@H](CCCCCCCC(=O)O)O2
Q: Order the entries by their reported MIC, beginning at the minimum. // format: requested-order list of labels
Result: R, P, Q
(R: 3.7 µM, P: 12 µM, Q: 24 µM)
